B1: KRT15 (parent)
chain: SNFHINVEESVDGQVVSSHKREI

- Variants of: B1
- experiment description: protein stability index of a GFP-peptide fusion (GPS, HEK-293T) (PSI 1-6); higher = more stable;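 also: lentivirally expressed fusions sorted by FACS into six bins by GFP to DsRed ratio, PSI derived from sequencing read proportions per bin multiplied by bin number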
- stated conditions: c terminus: native
readout label: protein stability index

[
  {
    "mutant name": "N2G",
    "result value": 1.87
  },
  {
    "mutant name": "E8W",
    "result value": 2.41
  },
  {
    "mutant name": "V15I",
    "result value": 2.11
  },
  {
    "mutant name": "H19F",
    "result value": 1.33
  },
  {
    "mutant name": "V7K",
    "result value": 2.1
  },
  {
    "mutant name": "N2L",
    "result value": 2.23
  },
  {
    "mutant name": "N6Y",
    "result value": 1.06
  },
  {
    "mutant name": "S10A",
    "result value": 2.85
  },
  {
    "mutant name": "E9C",
    "result value": 2.73
  },
  {
    "mutant name": "I23F",
    "result value": 4.74
  },
  {
    "mutant name": "D12Q",
    "result value": 2.07
  },
  {
    "mutant name": "I5K",
    "result value": 2.14
  },
  {
    "mutant name": "V16Q",
    "result value": 2.62
  },
  {
    "mutant name": "S10F",
    "result value": 1.43
  },
  {
    "mutant name": "F3D",
    "result value": 3.01
  },
  {
    "mutant name": "I23P",
    "result value": 3.83
  },
  {
    "mutant name": "V16S",
    "result value": 2.18
  },
  {
    "mutant name": "S17A",
    "result value": 2.37
  },
  {
    "mutant name": "N2F",
    "result value": 2.6
  },
  {
    "mutant name": "S1V",
    "result value": 1.78
  },
  {
    "mutant name": "E8Q",
    "result value": 1.59
  },
  {
    "mutant name": "F3H",
    "result value": 3.1
  },
  {
    "mutant name": "I23E",
    "result value": 2.44
  },
  {
    "mutant name": "V16D",
    "result value": 2.86
  },
  {
    "mutant name": "R21D",
    "result value": 4.89
  },
  {
    "mutant name": "S17D",
    "result value": 1.8
  },
  {
    "mutant name": "D12N",
    "result value": 1.82
  },
  {
    "mutant name": "H19C",
    "result value": 2.22
  },
  {
    "mutant name": "D12Y",
    "result value": 1
  },
  {
    "mutant name": "H4T",
    "result value": 1.43
  },
  {
    "mutant name": "Q14A",
    "result value": 2.04
  },
  {
    "mutant name": "V7N",
    "result value": 2.1
  },
  {
    "mutant name": "F3Q",
    "result value": 2.5
  },
  {
    "mutant name": "S18I",
    "result value": 2.44
  },
  {
    "mutant name": "Q14D",
    "result value": 2.33
  },
  {
    "mutant name": "G13R",
    "result value": 2.35
  },
  {
    "mutant name": "R21M",
    "result value": 4.91
  },
  {
    "mutant name": "V11A",
    "result value": 1.94
  },
  {
    "mutant name": "E8D",
    "result value": 1.8
  },
  {
    "mutant name": "D12H",
    "result value": 2.38
  }
]
